This collection of values is drawn from patent US7632952B2.

- MEASURED TARGET: CDK4/cyclin D1 (Homo sapiens)
- Sequence (P11802 whole entry): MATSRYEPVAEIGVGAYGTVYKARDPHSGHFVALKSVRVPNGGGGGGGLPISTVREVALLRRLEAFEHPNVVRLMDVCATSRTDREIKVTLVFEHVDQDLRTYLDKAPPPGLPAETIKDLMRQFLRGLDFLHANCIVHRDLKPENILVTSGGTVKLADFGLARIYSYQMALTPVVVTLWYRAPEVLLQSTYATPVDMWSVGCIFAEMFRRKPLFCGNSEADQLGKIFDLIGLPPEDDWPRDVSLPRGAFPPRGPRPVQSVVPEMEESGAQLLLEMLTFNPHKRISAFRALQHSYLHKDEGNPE
- Sequence (P24385 whole entry partner): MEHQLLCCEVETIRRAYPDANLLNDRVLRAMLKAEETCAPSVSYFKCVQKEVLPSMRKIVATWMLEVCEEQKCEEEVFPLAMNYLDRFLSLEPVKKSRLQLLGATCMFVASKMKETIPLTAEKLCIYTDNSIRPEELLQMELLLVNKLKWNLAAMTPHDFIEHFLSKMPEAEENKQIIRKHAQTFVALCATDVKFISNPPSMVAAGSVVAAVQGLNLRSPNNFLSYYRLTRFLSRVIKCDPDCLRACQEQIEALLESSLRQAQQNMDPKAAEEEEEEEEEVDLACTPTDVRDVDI
- PROTOCOL DETAILS: CDK4/cyclin D1 Flashplate test in 96-well format
Where a name gives a salt, the structure may show the parent alone.
QUANTITY NAME: IC50 (nM)

{"COMPOUND": "CC(C)NCCNc1ccc(S(=O)(=O)Oc2ccc3nc(NC(=O)C4CC4)sc3c2)cc1 [Example 53, hydrochloride]", "RECORDED MEASUREMENT": 205}

1 = CC(C)N(CCNc1ccc(S(=O)(=O)Oc2ccc3nc(NC(=O)C4CNC4)sc3c2)cc1)C(C)C
2 = CC(C)N(CCNc1ccc(S(=O)(=O)Oc2ccc3nc(NC(=O)CC4CCNCC4)sc3c2)cc1)C(C)C
[Q] Of 1 and 2 , which shows the smaller IC50 value? Selection: enter the item's label.
[A] 2
(2: 202 nM, 1: 2330 nM)
